Sourced from ChEMBL document CHEMBL5537169

assay.text: AUCinfinity in CD-1 mouse at 10 mg/kg,po measured at 0.083 to 24 hrs post administration by LC-MS/MS analysis
Format: ADME, organism-based
measurement.parameters: in vivo, time 0.083-24 hrs
Give measured AUC(0-inf) for each item. Keep answers brief.

## Task Find the recorded AUC(0-inf) belonging to COCCCOc1cc2c(cc1C1CC1)-c1cc(=O)c(C(=O)O)cn1[C@H](C(C)C)CO2 and report it.
## Result 8410 ng·h/mL

## Task Try this molecule too: COCCCOc1cc2c(cc1Cl)-c1cc(=O)c(C(=O)O)cn1[C@H](C(C)C)CO2
## Result 5880 ng·h/mL

## Task Try this molecule too: CCc1cc2c(cc1OCCCOC)OC[C@@H](C(C)C)n1cc(C(=O)O)c(=O)cc1-2
## Result 7080 ng·h/mL

## Task Try this molecule too: COCCCOc1cc2c(nc1OC)-c1cc(=O)c(C(=O)O)cn1[C@H](C(C)C)C2
## Result 5680 ng·h/mL

## Task Try this molecule too: COCCCOc1cc2c(nc1OC)-c1cc(=O)c(C(=O)O)cn1[C@](C)(C(C)(C)C)C2
## Result 4360 ng·h/mL

## Task Try this molecule too: COCCCOc1cc2c(nc1OC)-c1cc(=O)c(C(=O)O)cn1[C@](C)(C(C)C)C2
## Result 4160 ng·h/mL

## Task Try this molecule too: COCCCOc1cc2c(cc1OC)-c1cc(=O)c(C(=O)O)cn1[C@H](C(C)C)C2
## Result 6150 ng·h/mL
